These data points were gathered from patent US6355799B1.

Tested on: upland rice (Oryza sp., var. Tebonnet, RICE)
Protocol Description: Pre-emerge test, crop safety
Assay type: in vivo
Experimental Parameters: 63 g ai/ha; rated 14 days after application; 0 = no damage, 100 = complete death
Listed here: items and their measured Pre-emerge phytotoxicity rating (0-100), crop damage, RICE.
Could you respond with only the numeric value?

Sample answers from the record:
INSERT INTO measurements (structure_smiles, system_under_test, measured_result) VALUES
  ('COc1c(Cl)cc(F)c(-n2c(=O)cc(C(F)(F)F)n(C)c2=O)c1NC(=O)C=Cc1ccco1', 'upland rice (Oryza sp., var. Tebonnet, RICE)', 0),
  ('COc1c(Cl)cc(F)c(-n2c(=O)cc(C(F)(F)F)n(C)c2=O)c1NC(=O)c1ccc(F)cc1F', 'upland rice (Oryza sp., var. Tebonnet, RICE)', 90),
  ('COc1c(Cl)cc(F)c(-n2c(=O)cc(C(F)(F)F)n(C)c2=O)c1NC(=O)c1ccccc1F', 'upland rice (Oryza sp., var. Tebonnet, RICE)', 90),
  ('COc1ccc(C(=O)Nc2c(OC)c(Cl)cc(F)c2-n2c(=O)cc(C(F)(F)F)n(C)c2=O)cc1', 'upland rice (Oryza sp., var. Tebonnet, RICE)', 95),
  ('COc1c(Cl)cc(F)c(-n2c(=O)cc(C(F)(F)F)n(C)c2=O)c1NC(=O)c1ccc(F)c(F)c1', 'upland rice (Oryza sp., var. Tebonnet, RICE)', 90),
  ('COc1c(Cl)cc(F)c(-n2c(=O)cc(C(F)(F)F)n(C)c2=O)c1NC(=O)c1ccc(OC(F)(F)F)cc1', 'upland rice (Oryza sp., var. Tebonnet, RICE)', 10);

Now for another entry.
query: Using known records, supply Pre-emerge phytotoxicity rating (0-100), crop damage, RICE for `COc1c(Cl)cc(F)c(-n2c(=O)cc(C(F)(F)F)n(C)c2=O)c1N(C(=O)c1ccc(F)c(F)c1)C(=O)c1ccc(F)c(F)c1`
result: 20

###

Test system: sicklepod (Cassia obtusifolia, CASOB)
Protocol Description: Pre-emerge test, greenhouse herbicide activity screening
Format: in vivo
Experimental Parameters: 250 g ai/ha; pre-emerge; rated 14 days after application; 0 = no damage, 100 = complete death
Listed here: items and their measured Pre-emerge Herbicidal Activity CASOB (phytotoxicity rating, scale 0-100).
Could you respond with only the numeric value?

query: Using known records, supply Pre-emerge Herbicidal Activity CASOB (phytotoxicity rating, scale 0-100) for COc1c(Cl)cc(F)c(-n2c(=O)c(NC(=O)C(F)(F)F)c(C(F)(F)F)n(C)c2=O)c1NC(=O)C(F)(F)F [2-12]
result: 40

query: Using known records, supply Pre-emerge Herbicidal Activity CASOB (phytotoxicity rating, scale 0-100) for COc1c(Cl)cc(F)c(-n2c(=O)cc(C(F)(F)F)n(C)c2=O)c1NC(=O)C(C)(C)C [2-3]
result: 100

query: Using known records, supply Pre-emerge Herbicidal Activity CASOB (phytotoxicity rating, scale 0-100) for COc1c(Cl)cc(F)c(-n2c(=O)cc(C(F)(F)F)n(C)c2=O)c1N(C(C)=O)C(C)=O [Compound 2-2]
result: 90

###

Tested on: sicklepod (Cassia obtusifolia, CASOB)
Protocol Description: Pre-emerge test, greenhouse herbicide activity screening
Format: in vivo
Experimental Parameters: 63 g ai/ha; rated 14 days after application; 0 = no damage, 100 = complete death
Parameter: Pre-emerge Herbicidal Activity, phytotoxicity rating (0-100), CASOB

INSERT INTO measurements (compound, measured_result) VALUES
  ('COc1c(Cl)cc(F)c(-n2c(=O)cc(C(F)(F)F)n(C)c2=O)c1NC(=O)c1ccc(Cl)c(Cl)c1 [2-59]', 30),
  ('COc1c(Cl)cc(F)c(-n2c(=O)cc(C(F)(F)F)n(C)c2=O)c1NC(=O)c1cccc2ccccc12 [2-74]', 40),
  ('CCOc1ccc(C(=O)Nc2c(OC)c(Cl)cc(F)c2-n2c(=O)cc(C(F)(F)F)n(C)c2=O)cc1 [2-64]', 0),
  ('COc1c(Cl)cc(F)c(-n2c(=O)cc(C(F)(F)F)n(C)c2=O)c1NC(=O)c1ccc(F)cc1F [Compound 2-42]', 80),
  ('COc1c(Cl)cc(F)c(-n2c(=O)cc(C(F)(F)F)n(C)c2=O)c1NC(=O)c1ccc(I)cc1 [2-66]', 35);

query: Using known records, supply Pre-emerge Herbicidal Activity, phytotoxicity rating (0-100), CASOB for COc1c(Cl)cc(F)c(-n2c(=O)cc(C(F)(F)F)n(C)c2=O)c1NC(=O)c1ccc(Br)cc1 [2-61]
result: 40

query: Using known records, supply Pre-emerge Herbicidal Activity, phytotoxicity rating (0-100), CASOB for COc1c(Cl)cc(F)c(-n2c(=O)cc(C(F)(F)F)n(C)c2=O)c1N(C(=O)C=Cc1ccccc1Cl)C(=O)C=Cc1ccccc1Cl [2-83]
result: 0

query: Using known records, supply Pre-emerge Herbicidal Activity, phytotoxicity rating (0-100), CASOB for COc1c(Cl)cc(F)c(-n2c(=O)cc(C(F)(F)F)n(C)c2=O)c1NC(=O)c1ccc(F)cc1 [2-40]
result: 80

query: Using known records, supply Pre-emerge Herbicidal Activity, phytotoxicity rating (0-100), CASOB for COc1ccc(C(=O)Nc2c(OC)c(Cl)cc(F)c2-n2c(=O)cc(C(F)(F)F)n(C)c2=O)cc1 [2-63]
result: 100

query: Using known records, supply Pre-emerge Herbicidal Activity, phytotoxicity rating (0-100), CASOB for COc1c(Cl)cc(F)c(-n2c(=O)cc(C(F)(F)F)n(C)c2=O)c1NC(=O)c1ccccc1F [2-39]
result: 100

query: Using known records, supply Pre-emerge Herbicidal Activity, phytotoxicity rating (0-100), CASOB for COc1c(Cl)cc(F)c(-n2c(=O)cc(C(F)(F)F)n(C)c2=O)c1NC(=O)c1ccc2c(c1)OCO2 [2-73]
result: 100

query: Using known records, supply Pre-emerge Herbicidal Activity, phytotoxicity rating (0-100), CASOB for COc1c(Cl)cc(F)c(-n2c(=O)cc(C(F)(F)F)n(C)c2=O)c1NC(=O)c1cccc(F)c1F [2-41]
result: 80
